biological target: CB2 receptor (Homo sapiens, UniProt P34972)
Sequence (P34972 whole entry): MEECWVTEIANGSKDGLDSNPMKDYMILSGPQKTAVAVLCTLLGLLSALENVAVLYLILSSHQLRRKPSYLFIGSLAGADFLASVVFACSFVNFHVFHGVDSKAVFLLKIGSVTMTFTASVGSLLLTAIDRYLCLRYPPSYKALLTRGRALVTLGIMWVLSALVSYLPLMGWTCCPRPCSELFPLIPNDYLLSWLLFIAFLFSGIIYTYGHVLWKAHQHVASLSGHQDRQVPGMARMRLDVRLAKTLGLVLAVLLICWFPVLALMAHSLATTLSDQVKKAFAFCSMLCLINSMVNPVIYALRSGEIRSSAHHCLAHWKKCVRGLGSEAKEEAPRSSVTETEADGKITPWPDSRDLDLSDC
propertyName: pIC50
Numbers only, as −log10 of the molar value.

Req: Output pIC50 of "CC1=C[C@H](O)CC(C)(C)[C@H]1/C=C/C(C)=C/C=C/C(C)=C/C=C/C=C(C)/C=C/C=C(C)/C=C/C1=C(C)C[C@@H](O)CC1(C)C"
Resp: 4.25

Value source: paper PMC6098982
